# System: CP191
# protocol text: qHTS profiling for inhibitors of Plasmodium falciparum proliferation (AID 504749); also: nearly all actives have a fitted effect of over 60% in size
# condition set: P. falciparum in erythrocytes, SYBR Green DNA, 72 h; series mostly up to 28.7 µM
# Method: NIH National Institute of Allergy and Infectious Diseases [NIAID] NIH Chemical Genomics Center [NCGC] […] Because mature erythrocytes lack DNA, only Plasmodium-derived DNA is detected. NCGC Assay Protocol Summary: The SYBR Green viability assay was adapted from a method described previously (Plouffe et al., 2008). […] The following morning, fluorescence intensity at 485(14) nm excitation and 535(25) nm emission wavelengths was measured on an EnVision (Perkin Elmer) plate reader. […]
Records with an inconclusive call do not appear. Activity calls are given as the source filed them. Calls follow the shape of the dose curve; as a rule, active = well fitted inhibition curve with a large enough effect; inconclusive = small, poorly fitted or top-dose-only effect; inactive = flat fitted curve, though single readings scatter.
Response enum: True = active, False = inactive

Here are 3 compounds together with their reported answers.
>>> class_assignment("COc1cccc2c1C(=O)c1c(O)c3c(c(O)c1C2=O)C[C@@](O)(C(=O)CO)C[C@@H]3O[C@H]1C[C@H](N)[C@H](OC2CCCCO2)[C@H](C)O1 (stereo not given in full)")
"True"
>>> class_assignment("OCC(O)C(O)C(O)CO (stereo not given)")
"False"
>>> class_assignment("Nc1nc2c(c(=O)[nH]1)N(C=O)[C@H](CNc1ccc(C(=O)N[C@@H](CCC(=O)O)C(=O)O)cc1)CN2")
"False"

Tell me the assay call for COc1ccc2c(c1OC)C(=O)OC2[C@H]1c2c(cc3c(c2OC)OCO3)CCN1C (stereo not given in full) please.
False

Then this compound: COc1ccc([C@@H]2CNC(=O)C2)cc1OC1CCCC1
False
